I'd be grateful if you could share measured IC50 for these entries.
Target: Integrin alpha-V/beta-3 (Homo sapiens, UniProt P05106+P06756)
Sequence (P05106 27-788 limits assumed): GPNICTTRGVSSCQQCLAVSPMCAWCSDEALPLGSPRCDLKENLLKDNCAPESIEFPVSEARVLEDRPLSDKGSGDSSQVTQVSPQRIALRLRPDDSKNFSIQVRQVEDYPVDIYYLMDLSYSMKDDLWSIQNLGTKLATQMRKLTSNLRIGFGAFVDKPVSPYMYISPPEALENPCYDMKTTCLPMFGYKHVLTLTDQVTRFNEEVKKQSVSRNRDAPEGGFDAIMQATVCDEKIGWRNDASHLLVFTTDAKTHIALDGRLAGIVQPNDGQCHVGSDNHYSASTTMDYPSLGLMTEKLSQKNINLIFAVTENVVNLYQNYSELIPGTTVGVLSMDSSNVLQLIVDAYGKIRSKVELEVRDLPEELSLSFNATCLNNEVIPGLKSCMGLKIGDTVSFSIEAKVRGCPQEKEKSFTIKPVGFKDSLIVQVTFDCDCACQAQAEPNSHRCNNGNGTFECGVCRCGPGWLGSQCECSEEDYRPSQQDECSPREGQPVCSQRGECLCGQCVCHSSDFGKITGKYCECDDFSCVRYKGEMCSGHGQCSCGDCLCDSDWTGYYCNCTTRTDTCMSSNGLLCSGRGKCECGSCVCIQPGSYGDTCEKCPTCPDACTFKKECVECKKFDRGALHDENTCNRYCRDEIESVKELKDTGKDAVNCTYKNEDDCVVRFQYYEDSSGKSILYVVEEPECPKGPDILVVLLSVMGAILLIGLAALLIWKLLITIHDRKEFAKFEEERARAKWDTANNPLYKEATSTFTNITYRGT
Sequence (P06756 31-889 limits assumed): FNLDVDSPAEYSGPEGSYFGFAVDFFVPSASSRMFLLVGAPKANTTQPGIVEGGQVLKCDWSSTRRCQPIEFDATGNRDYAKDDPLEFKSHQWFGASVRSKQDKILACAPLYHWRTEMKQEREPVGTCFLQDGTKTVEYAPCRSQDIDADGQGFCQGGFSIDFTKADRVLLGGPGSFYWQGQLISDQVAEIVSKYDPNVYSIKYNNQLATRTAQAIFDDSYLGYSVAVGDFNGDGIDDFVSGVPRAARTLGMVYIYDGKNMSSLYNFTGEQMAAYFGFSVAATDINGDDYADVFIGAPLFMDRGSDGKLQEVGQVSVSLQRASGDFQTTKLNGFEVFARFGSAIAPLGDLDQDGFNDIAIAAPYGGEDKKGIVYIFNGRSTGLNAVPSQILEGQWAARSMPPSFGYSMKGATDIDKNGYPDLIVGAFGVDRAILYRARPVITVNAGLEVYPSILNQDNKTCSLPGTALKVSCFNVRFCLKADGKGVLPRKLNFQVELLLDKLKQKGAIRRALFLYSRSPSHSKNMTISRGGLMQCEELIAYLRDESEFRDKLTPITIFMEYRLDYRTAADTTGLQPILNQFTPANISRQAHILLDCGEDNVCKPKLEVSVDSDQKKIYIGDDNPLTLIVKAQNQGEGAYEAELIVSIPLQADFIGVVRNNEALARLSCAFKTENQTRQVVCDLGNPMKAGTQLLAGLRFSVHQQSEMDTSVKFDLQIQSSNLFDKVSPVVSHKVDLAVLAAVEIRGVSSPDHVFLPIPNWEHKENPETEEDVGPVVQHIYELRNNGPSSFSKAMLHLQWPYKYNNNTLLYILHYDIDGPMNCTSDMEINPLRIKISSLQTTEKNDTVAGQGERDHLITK
Sequence (P06756 891-1048 limits assumed): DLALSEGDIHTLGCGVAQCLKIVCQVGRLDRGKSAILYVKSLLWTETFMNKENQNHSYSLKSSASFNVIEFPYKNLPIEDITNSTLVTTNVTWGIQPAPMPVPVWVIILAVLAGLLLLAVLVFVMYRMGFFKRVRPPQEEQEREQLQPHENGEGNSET
Test: Inhibitory concentration against alphaV-beta3 integrin
Answers are plain numbers, in nM.

CCCC(Cn1ccc2cc(OCCCNc3ccccn3)ccc21)C(=O)O (stereo not given)	2000
COc1ccccc1C(CC(=O)O)n1ccc2cc(OCCc3ccc4c(n3)NCCC4)ccc21 (stereo not given)	1.1
O=C(O)CC(c1ccccc1Cl)n1ccc2cc(OCCc3ccc4c(n3)NCCC4)ccc21 (stereo not given)	55

Next, consider the following compound.
Request: # query: IC50 | item COc1ccc(C(CC(=O)O)n2ccc3cc(OCCc4ccc5c(n4)NCCC5)ccc32)cc1 (stereo not given) | system: Integrin alpha-V/beta-3 (Homo sapiens, UniProt P05106+P06756)
Result: 0.7

---

Target: Integrin alpha-V/beta-3 (Homo sapiens, UniProt P05106+P06756)
Assay: Inhibitory concentration against alphaV-beta3 integrin
pIC50: −log10 of the molar value.
# cutoff 9 applies to pIC50; >= gives class 1, < gives class 0

Recorded results for 10 molecules are shown here.
O=C(O)CC(c1cccc2ccccc12)n1ccc2cc(OCCc3ccc4c(n3)NCCC4)ccc21 (stereo unspecified)	class 0
CCCC(CC(=O)O)n1ccc2cc(NC(=O)Cc3ccc4c(n3)NCCC4)ccc21 (stereo unspecified)	class 0
CC(Cn1ccc2cc(OCCCNc3ccccn3)ccc21)C(=O)O (stereo unspecified)	class 0
O=C(O)C(Cc1ccccc1)Cn1ccc2cc(OCCCNc3ccccn3)ccc21 (stereo unspecified)	class 0
O=C(O)CC(c1cccc(Cl)c1)n1ccc2cc(OCCc3ccc4c(n3)NCCC4)ccc21 (stereo unspecified)	class 1
CCCC(CC(=O)O)n1ccc2cc(OCCc3ccc4c(n3)NCCC4)ccc21 (stereo unspecified)	class 0
N#Cc1cncc(C(CC(=O)O)n2ccc3cc(OCCc4ccc5c(n4)NCCC5)ccc32)c1 (stereo unspecified)	class 1
O=C(O)CC(c1cnc2ccccc2c1)n1ccc2cc(OCCc3ccc4c(n3)NCCC4)ccc21 (stereo unspecified)	class 1
CS(=O)(=O)c1cncc(C(CC(=O)O)n2ccc3cc(OCCc4ccc5c(n4)NCCC5)ccc32)c1 (stereo unspecified)	class 1
CS(=O)(=O)c1ccc(C(CC(=O)O)n2ccc3cc(OCCc4ccc5c(n4)NCCC5)ccc32)cn1 (stereo unspecified)	class 1

Request: Is the recorded value of pIC50 equal to or greater than 9 for this molecule? O=C(O)CC(c1cccnc1)n1ccc2cc(OCCc3ccc4c(n3)NCCC4)ccc21 (stereo unspecified)
Result: class 1

Request: Can you check O=C(O)CC(c1ccc2c(c1)OCO2)n1ccc2cc(OCCc3ccc4c(n3)NCCO4)ccc21 (stereo unspecified) next?
Result: class 0

Request: Can you check O=C(O)CC(c1cccnc1)n1ccc2cc(OCC(F)(F)c3ccc4c(n3)NCCC4)ccc21 (stereo unspecified) next?
Result: class 0

---

Experiment: Half life in mice after intravenous dosage
Type: ADME, organism-based
Settings: mouse, in vivo
ENDPOINT LABEL: half-life
Answer shape: numeric part, then the unit.

Request: Suppose we examine the compound O=C(O)CC(c1ccc2c(c1)OCO2)n1ccc2cc(OCCc3ccc4c(n3)NCCC4)ccc21 (stereo unspecified) ; what half-life value has been reported?
Result: 1.5 h

---

I'd be grateful if you could share measured IC50 for these entries.
Biological target: Integrin alpha-V/beta-3 (Homo sapiens, UniProt P05106+P06756)
Assay: Inhibitory concentration against alphaV-beta3 integrin
Give bare numbers, in nM.

# annotated cases, reported IC50 shown
O=C(O)CC(c1ccccn1)n1ccc2cc(OCCc3ccc4c(n3)NCCC4)ccc21 (stereo not drawn)	1.2
O=C(O)CC(c1ccc(F)cc1)n1ccc2cc(OCCc3ccc4c(n3)NCCC4)ccc21 (stereo not drawn)	0.7

Request: Suppose we examine the compound O=C(O)CC(c1ccccc1)n1ccc2cc(OCCc3ccc4c(n3)NCCC4)ccc21 (stereo not drawn) ; what IC50 value has been reported?
Result: 1
